- Test system: Lolium multiflorum
- PROCEDURE TEXT: Plant growth regulatory activity in Lolium multiflorum (Italian ryegrass) assessed as inhibition of root growth at 1x10'-3 M at 20 degC measured after 5 days
- Format: functional
- TEST PARAMETERS: 120 h, read-out: GI
READOUT TYPE: inhibition of growth at 1000 µM (%)
Write the value in % as a bare number.

Which inhibition of growth at 1000 µM is reported for this molecule? `COc1cc(C[C@@H]2CO[C@H](c3ccc(O)c(OC)c3)[C@@H]2CO)ccc1O`
-30

Which inhibition of growth at 1000 µM is reported for this molecule? COc1cc(C[C@@H]2CO[C@@H](c3ccc(O)c(OC)c3)[C@@H]2CO)ccc1O [(-)-Lariciresinol]
-44.3

Which inhibition of growth at 1000 µM is reported for this molecule? `COc1cc(C[C@H]2CO[C@@H](c3ccc(O)c(OC)c3)[C@H]2CO)ccc1O`
-30

Which inhibition of growth at 1000 µM is reported for this molecule? `COc1cc(C[C@H]2CO[C@H](c3ccc(O)c(OC)c3)[C@H]2CO)ccc1O`
-29.3

Which inhibition of growth at 1000 µM is reported for this molecule? `COc1cc(C[C@H]2CO[C@H](c3ccc(O)c(OC)c3)[C@@H]2CO)ccc1O`
-48.2
